assayed.system: human recombinant HDAC6 (Homo sapiens, UniProt Q9UBN7)
Construct: purchased Calbiochem Inc. 382180
test: HDAC6 enzyme activity inhibition (HDAC Fluorimetric Drug Discovery Kit)
Type: biochemical
setup.conditions: HDAC1 versus HDAC6
Description: An experiment was conducted to identify the selectivity of the 1,3,4-oxadiazole triazole compound of the present invention to HDAC6 through an experiment on HDAC1 and HDAC6 enzyme activity inhibition. The HDAC enzyme activity was measured with HDAC Fluorimetric Drug Discovery Kit (BML-AK511, 516) of Enzo Life Science, Inc. For the test on the HDAC1 enzyme activity, human recombinant HDAC1 (BML-SE456) was used as an enzyme source and Fluor de Lys®-“SIRT1 (BNL-KI177)” was used as a substrate. […]
readout.type: HDAC6 selectivity (fold)
Could you give me the number in fold? Just the number is fine.

Below, 5 molecules whose answers are already recorded.
molecule	units.text	HDAC6 selectivity (fold)
Fc1ccc(CN2CCCCC2)cc1-c1cn(Cc2ccc(-c3nnc(C(F)F)o3)cn2)nn1 [Compound 18]	fold	1845
Fc1cc(CN2CCCC2)cc(-c2cn(Cc3ccc(-c4nnc(C(F)F)o4)cn3)nn2)c1 [Compound 39]	fold	1773
FC(F)c1nnc(-c2ccc(Cn3cc(-c4ccc(CN5CCC5)cn4)nn3)nc2)o1 [Compound 2]	fold	2252
CN(C)Cc1ccc(-c2cn(Cc3ccc(-c4nnc(C(F)F)o4)cn3)nn2)cc1Cl [Compound 41]	fold	2083
Fc1ccc(-c2cn(Cc3ccc(-c4nnc(C(F)F)o4)cn3)nn2)cc1CN1CCCCC1 [Compound 24]	fold	2577

Shifting focus to the molecule that follows.
Ask | I'd like to know its HDAC6 selectivity (fold). The molecule in question is FC(F)c1nnc(-c2ccc(Cn3cc(-c4csc(CN5CC[C@H](F)C5)c4)nn3)nc2)o1 [Compound 13]
Reply | 1893

###

assayed.system: human recombinant HDAC6 (Homo sapiens, UniProt Q9UBN7)
Construct: purchased Calbiochem Inc. 382180
Sequence (Q9UBN7 1-1215): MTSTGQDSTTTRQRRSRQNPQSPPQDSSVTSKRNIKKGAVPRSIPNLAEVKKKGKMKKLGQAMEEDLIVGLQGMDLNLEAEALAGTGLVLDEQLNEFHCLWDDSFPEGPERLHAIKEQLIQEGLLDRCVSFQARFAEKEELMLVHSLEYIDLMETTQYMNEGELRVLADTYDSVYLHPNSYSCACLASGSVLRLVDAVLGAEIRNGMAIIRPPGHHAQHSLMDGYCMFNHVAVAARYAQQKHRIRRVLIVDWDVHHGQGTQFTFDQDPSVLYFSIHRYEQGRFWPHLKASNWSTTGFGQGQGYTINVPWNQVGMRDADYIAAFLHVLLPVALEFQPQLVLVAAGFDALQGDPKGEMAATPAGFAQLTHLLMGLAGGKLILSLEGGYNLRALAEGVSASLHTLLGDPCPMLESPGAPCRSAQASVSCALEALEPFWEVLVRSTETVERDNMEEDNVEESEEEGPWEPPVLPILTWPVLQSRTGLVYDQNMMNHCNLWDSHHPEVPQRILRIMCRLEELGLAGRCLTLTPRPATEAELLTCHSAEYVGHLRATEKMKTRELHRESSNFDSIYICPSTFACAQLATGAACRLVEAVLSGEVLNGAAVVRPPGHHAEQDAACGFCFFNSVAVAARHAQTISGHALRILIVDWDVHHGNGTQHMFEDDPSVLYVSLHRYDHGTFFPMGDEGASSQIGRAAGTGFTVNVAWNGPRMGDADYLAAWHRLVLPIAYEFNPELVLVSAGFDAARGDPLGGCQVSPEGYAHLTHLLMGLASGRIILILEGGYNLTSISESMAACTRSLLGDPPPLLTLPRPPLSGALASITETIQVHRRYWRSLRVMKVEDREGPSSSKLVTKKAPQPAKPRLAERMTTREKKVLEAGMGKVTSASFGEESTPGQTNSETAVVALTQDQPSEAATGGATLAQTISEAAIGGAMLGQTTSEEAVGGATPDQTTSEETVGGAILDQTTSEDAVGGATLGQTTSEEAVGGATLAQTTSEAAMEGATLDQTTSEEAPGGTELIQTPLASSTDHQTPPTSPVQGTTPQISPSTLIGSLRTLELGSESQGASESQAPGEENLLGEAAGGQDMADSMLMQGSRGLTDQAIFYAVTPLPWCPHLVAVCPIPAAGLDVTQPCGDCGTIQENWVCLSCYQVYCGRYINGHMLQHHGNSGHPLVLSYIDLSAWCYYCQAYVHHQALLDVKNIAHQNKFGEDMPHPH
test: HDAC6 enzyme activity inhibition (HDAC Fluorimetric Drug Discovery Kit)
Format: biochemical
setup.conditions: HDAC1 versus HDAC6
Known HDAC6 selectivity (fold) of a selection of compounds
Could you give me the number in fold? Just the number is fine.

compound	assayed.system	result.number
FC(F)c1nnc(-c2ccc(Cn3cc(-c4cccc(CN5CCCC5)c4Cl)nn3)nc2)o1 [Compound 36]	human recombinant HDAC6 (Homo sapiens, UniProt Q9UBN7)	1792

Ask | I'd like to know its HDAC6 selectivity (fold). The compound in question is FC(F)c1nnc(-c2ccc(Cn3cc(-c4ccc(CN5CC[C@H](F)C5)s4)nn3)nc2)o1 [Compound 7]
Reply | 1253

Ask | I'd like to know its HDAC6 selectivity (fold). The compound in question is CC1CCN(Cc2ccc(-c3cn(Cc4ccc(-c5nnc(C(F)F)o5)cn4)nn3)nc2)CC1 [Compound 4]
Reply | 1428

Ask | I'd like to know its HDAC6 selectivity (fold). The compound in question is CN(C)Cc1cccc(-c2cn(Cc3ccc(-c4nnc(C(F)F)o4)cn3)nn2)c1Cl [Compound 34]
Reply | 1633

Ask | I'd like to know its HDAC6 selectivity (fold). The compound in question is CC1(C)CCN(Cc2ccc(-c3cn(Cc4ccc(-c5nnc(C(F)F)o5)cn4)nn3)nc2)CC1 [Compound 17]
Reply | 1466

Ask | I'd like to know its HDAC6 selectivity (fold). The compound in question is Fc1c(CN2CCCCC2)cccc1-c1cn(Cc2ccc(-c3nnc(C(F)F)o3)cn2)nn1 [Compound 28]
Reply | 1440
